Provenance of the data: PubChem BioAssay

- ASSAY COMMENT: glucagon-like peptide 1 release enhancers, primary assay, NCI-H716 cell line, NPC library (AID 1117341); also: reference of the scale not given here
- EXPERIMENTAL PARAMETERS: NCI-H716 cells, at 10 µM, stronger effect = higher value
METRIC NAME: GLP1 secretion stimulation (%)

MOLECULE | MEASURED VALUE
NC(=O)CC[C@@H](N)C(=O)O | -0.1
NS(=O)(=O)c1cc(C2(O)NC(=O)c3ccccc32)ccc1Cl (stereo not drawn) | -2
COc1ccc(/C(C)=C/C(=O)O)c(OC)c1 | 1.3

###

- System: F380Y
- ASSAY COMMENT: modulators of BK channel variants, profiling panel, selectivity assay, cell-based, U2OS BacMam, thallium flux, beta subunits (AID 1259406);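 also: initial slope of Thallos dye fluorescence rise after thallium is added; log ratio against the mean of 0.3% DMSO vehicle wells on the same plate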
- EXPERIMENTAL PARAMETERS: at 30 µM
Collected log fold change Tl+ flux values appear next to each entry.

COMPOUND | log fold change Tl+ flux
O[C@@H](c1cc(C(F)(F)F)nc2c(C(F)(F)F)cccc12)[C@H]1CCCCN1 | 0.333
CN(C)CCC=C1c2ccccc2CCc2ccccc21 | 0.184
Cc1ncc([N+](=O)[O-])n1CC(C)O (centres undefined) | -0.058
O=C1CCC(N2C(=O)c3ccccc3C2=O)C(=O)N1 (centres undefined) | -0.00432

###

- ASSAY COMMENT: inhibition of endothelial tube formation, primary screen, imaging, VEGF stimulated, CD31 staining, tube area, NPC library (AID 1117340)
- EXPERIMENTAL PARAMETERS: VEGF-stimulated ADSC/ECFC co-culture, at 10 µM, stronger effect = higher value
METRIC NAME: tube area decrease (%)

COMPOUND | METRIC NAME | MEASURED VALUE
NCc1ccccc1Sc1ccccc1CO | tube area decrease | -11.8
O=C(N/N=C/c1ccccc1O)c1ccncc1 | tube area decrease | 86.7
Nc1cc(C(F)(F)F)ccc1S | tube area decrease | 44.8
CCCCc1oc2ccccc2c1C(=O)c1cc(I)c(OCCN(CC)CC)c(I)c1 | tube area decrease | 110
CCOC(=O)c1cccc(N)c1 | tube area decrease | -29.7
C#C[C@]1(O)CC[C@H]2[C@@H]3CCC4=Cc5oncc5C[C@]4(C)[C@H]3CC[C@@]21C | tube area decrease | 15
CCN(Cc1ccncc1)C(=O)C(CO)c1ccccc1 (configuration not stated) | tube area decrease | 7.1

###

- ASSAY COMMENT: inhibition of endothelial tube formation, primary screen, imaging, VEGF stimulated, CD31 staining, tube area, NPC library (AID 1117340)
- EXPERIMENTAL PARAMETERS: VEGF-stimulated ADSC/ECFC co-culture, at 10 µM
Active and inactive are the calls of the source.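 How the source made its calls: active means compound that reduces growth-factor-driven endothelial tube area in a mixed cell culture, no cutoff stated; inactive means the rest.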
Possible outcomes: class 1 = active, class 0 = inactive

COMPOUND | ASSIGNED CATEGORY
O=C(OC1C[C@@H]2CC3C[C@@H](C1)N2CC3=O)c1c[nH]c2ccccc12 (some centres undefined) | class 0
CC1(C)S[C@@H]2[C@H](NC(=O)C(c3ccccc3)S(=O)(=O)O)C(=O)N2[C@H]1C(=O)O (some centres undefined) | class 0
CC(C)(C)C(=O)OCOC(=O)C1N2C(=O)CC2S(=O)(=O)C1(C)C (centres undefined) | class 0
Cc1ccc(-c2cc(C(F)(F)F)nn2-c2ccc(S(N)(=O)=O)cc2)cc1 | class 0
C[C@H](CCC(=O)O)[C@H]1CC[C@H]2[C@@H]3C(=O)C[C@@H]4CC(=O)CC[C@]4(C)[C@H]3CC(=O)[C@]12C | class 0
Cc1cccc(C)c1NC(=O)CN1CCCC1 | class 0
CN1CCN(CCCN2c3ccccc3Sc3ccc(C(F)(F)F)cc32)CC1 | class 1
CC(=O)SC[C@@H](Cc1ccccc1)C(=O)NCC(=O)OCc1ccccc1 | class 0
CC(=O)O[C@]1(C(C)=O)CC[C@H]2[C@@H]3C=C(C)C4=CC(=O)CC[C@]4(C)[C@H]3CC[C@@]21C | class 0

###

- ASSAY COMMENT: inhibitors of polyQ protein aggregation (AID 1604)
- EXPERIMENTAL PARAMETERS: polyglutamine-induced protein aggregation inhibition assay; stronger effect = higher value; concentration not given here

COMPOUND | inhibition of aggregation
Nc1c2c(nc3ccccc13)CCCC2 | 38.8%
Cc1noc(NS(=O)(=O)c2ccc(N)cc2)c1C | 1.83%
NS(=O)(=O)c1cc2c(cc1C(F)(F)F)NCNS2(=O)=O | 91.6%
Nc1ncn([C@@H]2O[C@H](CO)[C@@H](O)[C@H]2O)c(=O)n1 | 38.1%
CCN(CC)CC(=O)Nc1c(C)cccc1C | 87%
CCCc1cc(=O)[nH]c(=S)[nH]1 | 48%
CC12CC3CC(C)(C1)CC(N)(C3)C2 | 35%
CCCNCC(O)COc1ccccc1C(=O)CCc1ccccc1 (configuration not stated) | 21.6%
O=S(=O)(O)CCS | 75%
COc1cc(NC(C)CCCN)c2ncccc2c1 (configuration not stated) | 78.1%
CN(C)CCC=C1c2ccccc2CCc2ccccc21 | 70.5%
NCCc1ccc(O)c(O)c1 | 81.4%

###

- SYSTEM TESTED: Cellular tumor antigen p53 (Homo sapiens) (UniProt P04637)
- Sequence (P04637 whole entry, looked up): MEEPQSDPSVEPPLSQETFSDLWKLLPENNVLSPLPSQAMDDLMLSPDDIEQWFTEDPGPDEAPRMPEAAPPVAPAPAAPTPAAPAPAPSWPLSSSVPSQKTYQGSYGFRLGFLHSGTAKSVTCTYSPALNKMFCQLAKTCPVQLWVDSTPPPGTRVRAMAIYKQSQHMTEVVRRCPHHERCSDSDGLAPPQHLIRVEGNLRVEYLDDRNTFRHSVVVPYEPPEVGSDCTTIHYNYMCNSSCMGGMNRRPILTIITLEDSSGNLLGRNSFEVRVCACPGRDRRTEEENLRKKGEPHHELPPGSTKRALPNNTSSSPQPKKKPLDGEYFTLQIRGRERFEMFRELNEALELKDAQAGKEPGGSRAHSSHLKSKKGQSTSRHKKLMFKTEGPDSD
- ASSAY COMMENT: kinase inhibitors altering GFP-p53 stability in HPV16-positive cells, imaging, known kinase inhibitor set, EGFP/DsRed ratio (AID 1053116);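 also: cells exposed to compounds for 24 h at 37 °C before reading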
- EXPERIMENTAL PARAMETERS: stronger effect = higher value
Activity calls are given as the source filed them. How the calls were made is not given here.
Collected EGFP/DsRed ratio values appear next to each entry.
METRIC NAME: EGFP/DsRed ratio

MOLECULE | MEASURED VALUE
Clc1ccc(-c2nn3ncccc3c2-c2ccnc(Nc3ccccc3)n2)cc1 | 0.304 (inactive)
COc1ccc2ncnc(Nc3ccc(OCc4ccccc4)cc3)c2c1 | 0.134 (inactive)
CNCC1CCn2c(c(C3=C(c4cn(C)c5ccccc45)C(=O)NC3=O)c3ccccc32)C1 (centres undefined) | 0.0128 (inactive)
CCn1c(-c2nonc2N)nc2c(C#CC(C)(C)O)ncc(OC3CCNCC3)c21 | 0.266 (inactive)
CS(=O)(=O)CCn1c(=O)c(Oc2ccc(F)cc2F)cc2cnc(NC3CCOCC3)nc21 | 0.0579 (inactive)
O=C1NC(=O)C(c2ccc(Cl)cc2)=C1Nc1ccc(Cl)c(C(=O)O)c1 | 0.0822 (inactive)
N#Cc1c(NC(=O)CN2CCOCC2)sc2c1CCCC2 | 0.0894 (inactive)
COc1cc(/C=N/Nc2ncnc3c2cnn3C(C)C)ccc1O | 0.127 (inactive)
Cn1cc(C2=C(c3c[nH]c4ccccc34)C(=O)NC2=O)c2ccccc21 | 0.286 (inactive)
OCCn1c(-c2ccncc2)c(-c2ccc(F)cc2)c2ncccc21 | 0.119 (inactive)
Cn1cc(C2=C(c3cn(CCCCCN)c4ccccc34)C(=O)NC2=O)c2ccccc21 | 0.639 (inactive)
CS(=O)(=O)N1CCC(n2c(=O)c(Oc3ccc(F)cc3F)cc3cnc(NC4CCOCC4)nc32)CC1 | 0.107 (inactive)
CS(=O)(=O)Nc1ccc(-c2ccc3c(NC(=O)C4CC4)n[nH]c3c2)cc1 | 0.0815 (inactive)
NC(=O)c1sc(-n2cnc3cc(C(F)(F)F)ccc32)cc1OCc1ccccc1Br | 0.407 (inactive)
Fc1ccc(-c2ncn(C3CCNCC3)c2-c2ccnc(Oc3ccc4c(c3)OCO4)n2)cc1 | 0.159 (inactive)
CCc1cccc(NC(=O)Nc2ccc(Oc3ccc4nc(NC(=O)OC)[nH]c4c3)cc2)c1 | 1.83 (active)
NS(=O)(=O)c1ccc(N=Nc2c(O)[nH]c3ccc(-c4cnco4)cc23)cc1 | 0.401 (inactive)
CC(=Nc1ccc(S(N)(=O)=O)cc1)c1c(O)[nH]c2ccccc12 | 0.00933 (inactive)
CC(=O)NC(Cc1ccc(OP(=O)(O)O)cc1)C(=O)NC1CCC(=O)N2CCCC(C(=O)NCc3ccccc3)N2C1=O (centres undefined) | 0.0487 (inactive)
Cc1cccc2c(C3=C(c4cn(C)c5ccccc45)C(=O)NC3=O)cn(C)c12 | 0.241 (inactive)
COc1cccc(C2=C(c3cn(C)c4cc(C)ccc34)C(=O)NC2=O)c1 | 0.336 (inactive)
CC1=C(C(=O)Nc2cc(Cl)c3[nH]ncc3c2)C(c2ccc(C(F)(F)F)cc2)CC(=O)N1 (centres undefined) | 0.126 (inactive)
Cc1ccc(-c2cc3c(NC(=O)C4CC4)ncnc3o2)cc1 | 0.0878 (inactive)
c1ccc(-c2nc3n(c2-c2ccc4c(c2)OCO4)CCC3)nc1 | 0.172 (inactive)
CN(C)c1cc2c(Nc3ccc4c(cnn4Cc4ccccc4)c3)ncnc2cn1 | 0.0403 (inactive)
Cc1ccc2c(-c3ccnc(Nc4ccc5c(c4)OCCO5)n3)c(-c3ccc(C(F)(F)F)cc3)nn2n1 | 0.0121 (inactive)
Cn1c(=O)c(Oc2ccccc2F)cc2cnc(NC3CCOCC3)nc21 | 0.313 (inactive)
Cc1cc(Cl)cc2c(N=Nc3ccc(S(N)(=O)=O)cc3)c(O)[nH]c12 | 0.092 (inactive)
Cn1cc(C2=C(c3cccc(NCC(O)CO)c3)C(=O)NC2=O)c2cc(Cl)ccc21 (centres undefined) | 0.196 (inactive)
